Molecular target: human recombinant BACE1 (Homo sapiens (Human), UniProt P56817)
Sequence (P56817 46-501): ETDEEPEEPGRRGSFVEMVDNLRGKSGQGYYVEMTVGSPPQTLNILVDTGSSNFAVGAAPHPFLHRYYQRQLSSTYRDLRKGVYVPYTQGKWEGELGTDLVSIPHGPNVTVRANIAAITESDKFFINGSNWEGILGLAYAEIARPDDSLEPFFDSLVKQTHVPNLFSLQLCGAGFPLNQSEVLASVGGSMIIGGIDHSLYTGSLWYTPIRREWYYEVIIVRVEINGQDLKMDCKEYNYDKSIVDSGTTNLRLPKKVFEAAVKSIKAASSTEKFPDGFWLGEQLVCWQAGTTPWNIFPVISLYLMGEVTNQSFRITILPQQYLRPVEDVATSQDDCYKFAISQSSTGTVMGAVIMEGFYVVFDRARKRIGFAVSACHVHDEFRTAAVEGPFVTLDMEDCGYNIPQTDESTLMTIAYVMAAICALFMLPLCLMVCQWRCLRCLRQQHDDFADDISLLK
Assay: In vitro enzymatic BACE1 FRET assay
Assay type: biochemical
Conditions: read-out: IC50 IP (μM) BACE1 enzyme
Entries and their measured IC50 follow.

Past entries and their recorded results:
Given the entry NC1=N[C@](CF)(c2cc(Nc3nncc4cc(Cl)cnc34)ccc2F)[C@@H]2C[C@@H]2S1 , report its measured IC50. 0.0454 µM

Given the entry Cc1nc(OCc2ncco2)cnc1C(=O)Nc1ccc(F)c([C@@]2(C)N=C(N)S[C@@]3(CF)C[C@H]32)c1 , report its measured IC50. 0.00253 µM

Now let's try a different one.
Given the entry COC[C@]12C[C@H]1[C@@](C)(c1cc(Nc3nccc4cc(OCc5nc(Br)cs5)cnc34)cc(F)c1F)N=C(N)S2 , report its measured IC50. 0.0317 µM

====

Biological target: human recombinant BACE2 (Homo sapiens (Human))
Sequence (Q9Y5Z0 63-518): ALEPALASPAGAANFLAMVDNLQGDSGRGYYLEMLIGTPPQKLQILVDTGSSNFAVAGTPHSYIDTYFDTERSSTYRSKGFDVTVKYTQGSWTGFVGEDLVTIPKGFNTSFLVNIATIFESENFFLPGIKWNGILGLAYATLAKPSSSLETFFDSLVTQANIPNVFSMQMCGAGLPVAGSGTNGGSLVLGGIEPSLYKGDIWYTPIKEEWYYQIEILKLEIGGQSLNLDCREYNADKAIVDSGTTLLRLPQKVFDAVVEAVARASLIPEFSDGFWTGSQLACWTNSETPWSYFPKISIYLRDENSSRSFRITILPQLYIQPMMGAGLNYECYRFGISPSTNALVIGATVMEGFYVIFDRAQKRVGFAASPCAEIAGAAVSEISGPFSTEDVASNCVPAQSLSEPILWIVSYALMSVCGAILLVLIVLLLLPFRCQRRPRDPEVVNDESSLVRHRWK
Experiment: In vitro enzymatic BACE2 FRET assay
Format: biochemical
Details: read-out: IC50 IP (μM) BACE2 enzyme
Procedure: These recombinant proteins were further purified using Ni-NTA affinity chromatography (Qiagen). […] This assay is effectively started by the addition of FRET substrate (50 nM) and the combination is incubated for one hour. The FRET assay is terminated by addition of Tris buffer, which raises the pH to neutrality, and the fluorescence is determined. […] Proteolytic cleavage of the FRET substrate releases quenching of fluorescence (excitation 488 nm and emission 590 nm).
Lab note: cut-off is 0.05 µM. Strictly less in IC50 is rule met. Exactly 0.05 µM or more is rule not met.

Solved entries:
Is it true that IC50 reported for C#CCOc1cnc2c(Nc3ccc(F)c([C@@]4(C)N=C(N)S[C@@]5(CF)C[C@H]54)c3)nccc2n1 [Example 823] is less than 0.05 µM? rule met

Is it true that IC50 reported for COC[C@]12C[C@H]1[C@@](C)(c1cc(NC(=O)c3cnc(OCC4COC4)cn3)cc(F)c1F)N=C(N)S2 [Example 1022] is less than 0.05 µM? rule not met

Is it true that IC50 reported for C#CCOc1cnc2c(Nc3cnc(F)c([C@@]4(C)N=C(N)S[C@@]5(CF)C[C@H]54)c3)ncnc2c1 [Example 944] is less than 0.05 µM? rule not met

Is it true that IC50 reported for COC[C@]12C[C@H]1[C@@](C)(c1cc(NC(=O)c3cnc(OCc4noc(C)n4)cn3)cc(F)c1F)N=C(N)S2 [Example 1013] is less than 0.05 µM? rule not met

Further cases:
Is it true that IC50 reported for C[C@]1(c2cc(Nc3nccc4cc(C#N)cnc34)cnc2F)N=C(N)S[C@H]2C[C@H]21 [Example 641] is less than 0.05 µM? rule met

====

Biological target: Recombinant Cat D (Homo sapiens (Human), UniProt P07339)
Sequence (P07339 65-412): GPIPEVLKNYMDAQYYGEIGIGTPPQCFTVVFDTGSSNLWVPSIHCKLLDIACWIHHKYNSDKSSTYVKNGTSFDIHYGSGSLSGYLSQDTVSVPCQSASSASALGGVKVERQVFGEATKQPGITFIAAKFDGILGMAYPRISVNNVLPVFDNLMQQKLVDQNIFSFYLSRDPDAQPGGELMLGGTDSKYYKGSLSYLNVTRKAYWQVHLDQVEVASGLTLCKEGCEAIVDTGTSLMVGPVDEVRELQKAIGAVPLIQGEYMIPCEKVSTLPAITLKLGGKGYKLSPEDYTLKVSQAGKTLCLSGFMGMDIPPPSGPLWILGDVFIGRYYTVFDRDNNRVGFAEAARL
Test: In vitro enzymatic Cathepsin D (Cat D) FRET assay
Assay type: biochemical
Conditions: Cathepsin D FRET enzyme assay; read-out: IC50 IP (μM) CatD
Property name: IC50 (µM)
State the answer as a number, implicitly in µM.

Given the entry CCOC(=O)[C@]12C[C@H]1[C@@](C)(c1cc(NC(=O)c3ccc(Cl)cn3)cc(F)c1F)N=C(N)S2 [Example 9] , report its measured IC50. 366

Now let's try a different one.
Given the entry C[C@]1(c2cc(Nc3ncnc4cc(Cl)cnc34)cc(F)c2F)N=C(N)S[C@H]2C[C@H]21 [Example 34] , report its measured IC50. 295
